- Test system: Plasmodium berghei
- experimental_protocol: Screen against P. berghei liver stage (PbLuc), transformed with Luciferase, at 10uM
- Assay type: functional, HepG2
- measurement_context: tested at 10 uM
Hit rate of the full screen: of about 69,000 compounds, about 8,600 (12%) showed an effect of 50% or more. This excerpt belongs to a sample that is enriched for strong results.
readout_type: INHIBITION (%)
Answers are plain numbers, in %.

CCc1nccn1C1CCCN(C(=O)c2cnc3onc(C)c3c2)C1 (stereo not given) | 66.4
COc1ccc(CC(=O)NCCNS(=O)(=O)c2ccc(C)cc2)cc1 | -57.5
COc1ccc(C[C@H]2CNCC[C@@H]2OCC2CC2)cc1 | -51.6
CN1CCCC1c1ccc(C(=O)N2CCc3ccccc3C2)s1 (stereo not given) | 66.9
CCN(CC)C(=O)Nc1cccc(Oc2ccccn2)c1 | 20
Cc1cc(C)n2c(CCCNS(=O)(=O)c3cccs3)nnc2n1 | 31.3

Take each entry in turn and give its INHIBITION.
1. Cc1ccc(-c2[nH]c3ccccc3c2C(=O)O)c(C)c1
2. Cc1cnc2c(S(=O)(=O)NCC3CCOC3)cccc2c1 (stereo not given)

31.7
3.15

Take each entry in turn and give its INHIBITION.
1. CCc1nccn1C1CCCN(C(=O)c2ccn(-c3ccccc3)n2)C1 (stereo not given)
2. CN(C)CCN1CCO[C@H]2CCN(C(=O)c3cccs3)CC[C@@H]21
3. CC(NC(=O)NCCCn1cccn1)c1ccncc1 (stereo not given)
4. CN(C)CCN1CCO[C@@H]2CCN(C(=O)c3cccn3C)CC[C@H]21
5. CC(C)N(Cc1ccccn1)C(=O)CCOc1cccc(F)c1

52.2
54.1
36.3
-16.2
-1.32

Take each entry in turn and give its INHIBITION.
1. Cc1cnn(CC2CCCN2C(=O)CCc2cscn2)c1 (stereo not given)
2. CS(=O)(=O)c1cc(Cl)cnc1C1CCCN(C(=O)C2CCOCC2)C1 (stereo not given)
3. Cc1noc2ncc(C(=O)N3CCCC(n4cccn4)C3)cc12 (stereo not given)

1. 19.965
2. 30.65
3. 27.8
